- MEASUREMENT TARGET: PAK4 (human)
- TEST: radiometric filter-binding kinase assay, Kinase HotSpot
- CONDITION SET: compound 0.5 µM; ATP 10 µM
REPORTED METRIC: residual activity

Exercise: Fill in residual activity for record `Cc1cc2ncc(-c3ccccc3)nc2cc1C`
Solution: 105%

Exercise: Tell us which residual activity value is on record for CSc1nc(-c2ccc(F)cc2)c(-c2ccnc(NC(C)c3ccccc3)c2)[nH]1 (configuration not stated)
Solution: 96.4%

Exercise: Please report the measured residual activity for `COc1ccc(-c2cnc3c(-c4ccsc4)cnn3c2)cc1`
Solution: 72.5%

Exercise: Answer with the recorded residual activity for the compound listed here: `Nc1n[nH]c2nnc(-c3c(-c4ccccc4)nn4ccccc34)cc12`
Solution: 101%

Exercise: Fill in reported residual activity for this entry: `CC(C)(C)c1nc2c3ccc(F)cc3c3c(=O)[nH]ccc3c2[nH]1`
Solution: 105%

Exercise: Give a short answer stating reported residual activity for `CC(C)[C@H](CO)Nc1nc(Nc2cccc(Cl)c2)c2ncn(C(C)C)c2n1` .
Solution: 99.5%

Exercise: Provide only the value of recorded residual activity for `Cc1ccc(NC(=O)c2ccc(CN3CCN(C)CC3)cc2)cc1Nc1nc(-c2cccnc2)cs1`
Solution: 103%
